Measured target: CDK2/Cyclin E (Homo sapiens, UniProt P24941)
Construct: The open reading frames of CDK2 and Cyclin E were isolated; made in house; host or cells: Sf21 (Spodoptera frugiperda) insect cells, baculovirus co-infection; the GST-Rb substrate was made in E. coli BL21 (DE3) pLysS
Experiment description: in vitro kinase Scintillation Proximity Assay, incorporation of [γ-33-P]-ATP into GST-Rb
Assay type: biochemical
Particulars: GST-Rb substrate, 0.2 μM ATP, 60 minutes at room temperature
Assay metric: IC50 (nM)
Reply numerically in nM, unit not repeated.

Before answering, review these 2 worked examples.
c1ccc(Nc2nccc(-c3cnc4n3CCOC4)n2)cc1 : 42
c1ccc(Nc2nccc(-c3cnc4n3CCCC4)n2)cc1 : 21

// moving on: another record for IC50
Reported IC50 for COCCNS(=O)(=O)c1ccc(Nc2nccc(-c3cnc4n3CCOC4)n2)cc1 was 13

meta.source: patent US7579344B2
